System: 876862-298-R-J1-PDC complex spheroids, viability % test/control;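 also: spheroids exposed to drugs for 7 days before readout; 100% = DMSO vehicle control wells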
Experiment: Anticancer human tumor 876862-298-R-J1-PDC patient-derived endometrial carcinoma cell line growth inhibition [CLK]; active = viability on the fitted dose curve at most 10% of control; inactive = the rest
Conditions: second compound 0.1 µM; first compound 3.16 µM
Excerpt: A high-throughput screen of multi-cell type tumor spheroids was designed to identify active combinations of […] and targeted small molecules. Complex spheroids include a stromal component modeled by human endothelial cells (HUVEC) and fibroblasts modeled by human mesenchymal stem cells (MSCs). […] Compounds. […] If the clinical Cmax for an agent had not been determined, the highest concentration tested was 10 microM. […]
Outcome codes: 1.0 (active), 0.0 (inactive)

INSERT INTO results (molecule, target_desc, answer_label) VALUES
  ('O=C(c1cc(Cc2n[nH]c(=O)c3ccccc23)ccc1F)N1CCN(C(=O)C2CC2)CC1 + CN1CCN(c2cc(C(=O)Nc3cc4cc(-c5cnn(C)c5)ccc4cn3)ccn2)CC1', '876862-298-R-J1-PDC complex spheroids, viability % test/control', 0.0),
  ('CC1COCCN1c1cc(C2(S(C)(=N)=O)CC2)nc(-c2ccnc3[nH]ccc23)n1 (centres undefined) + CN1CCN(c2cc(C(=O)Nc3cc4cc(-c5cnn(C)c5)ccc4cn3)ccn2)CC1', '876862-298-R-J1-PDC complex spheroids, viability % test/control', 0.0),
  ('Nc1ccccc1NC(=O)c1ccc(CNC(=O)OCc2cccnc2)cc1 + CNC(=O)c1ccc(Nc2nc(OC3CCCC3)c3c(-c4ccc5nc(C)oc5c4)c[nH]c3n2)c(OC)c1', '876862-298-R-J1-PDC complex spheroids, viability % test/control', 0.0),
  ('CC(CO)NC(=O)c1cc(-c2ccc(Cl)cc2)nn(-c2cnn(C)c2)c1=O (centres undefined) + CNC(=O)c1ccc(Nc2nc(OC3CCCC3)c3c(-c4ccc5nc(C)oc5c4)c[nH]c3n2)c(OC)c1', '876862-298-R-J1-PDC complex spheroids, viability % test/control', 0.0),
  ('CC1COCCN1c1cc(C2(S(C)(=N)=O)CC2)nc(-c2ccnc3[nH]ccc23)n1 (centres undefined) + CNC(=O)c1ccc(Nc2nc(OC3CCCC3)c3c(-c4ccc5nc(C)oc5c4)c[nH]c3n2)c(OC)c1', '876862-298-R-J1-PDC complex spheroids, viability % test/control', 0.0),
  ('Nc1ccn(C2OC(CO)C(O)C2(F)F)c(=O)n1 (centres undefined) + CN1CCN(c2cc(C(=O)Nc3cc4cc(-c5cnn(C)c5)ccc4cn3)ccn2)CC1', '876862-298-R-J1-PDC complex spheroids, viability % test/control', 1.0),
  ('Nc1ccn(C2OC(CO)C(O)C2(F)F)c(=O)n1 (centres undefined) + CNC(=O)c1ccc(Nc2nc(OC3CCCC3)c3c(-c4ccc5nc(C)oc5c4)c[nH]c3n2)c(OC)c1', '876862-298-R-J1-PDC complex spheroids, viability % test/control', 1.0),
  ('COc1cccc2c1C(=O)c1c(O)c3c(c(O)c1C2=O)CC(O)(C(=O)CO)CC3OC1CC(N)C(O)C(C)O1 (centres undefined) + CN1CCN(c2cc(C(=O)Nc3cc4cc(-c5cnn(C)c5)ccc4cn3)ccn2)CC1', '876862-298-R-J1-PDC complex spheroids, viability % test/control', 1.0),
  ('COC1C=CCC(C)C(C)S(=O)(=O)NC(=O)c2ccc3c(c2)N(CC2CCC21)CC1(CCCc2cc(Cl)ccc21)CO3 (centres undefined) + CN1CCN(c2cc(C(=O)Nc3cc4cc(-c5cnn(C)c5)ccc4cn3)ccn2)CC1', '876862-298-R-J1-PDC complex spheroids, viability % test/control', 0.0),
  ('COc1ccc([C@@H](O)c2cc(-c3ncnc4cc(N5CCOCC5)ccc34)c(F)cc2Cl)nn1 + CNC(=O)c1ccc(Nc2nc(OC3CCCC3)c3c(-c4ccc5nc(C)oc5c4)c[nH]c3n2)c(OC)c1', '876862-298-R-J1-PDC complex spheroids, viability % test/control', 0.0),
  ('CC(Nc1ccc2c(c1)OCCn1cc(N3C(=O)OCC3C(F)F)nc1-2)C(N)=O (centres undefined) + CNC(=O)c1ccc(Nc2nc(OC3CCCC3)c3c(-c4ccc5nc(C)oc5c4)c[nH]c3n2)c(OC)c1', '876862-298-R-J1-PDC complex spheroids, viability % test/control', 0.0),
  ('O=C(c1cc(Cc2n[nH]c(=O)c3ccccc23)ccc1F)N1CCN(C(=O)C2CC2)CC1 + CNC(=O)c1ccc(Nc2nc(OC3CCCC3)c3c(-c4ccc5nc(C)oc5c4)c[nH]c3n2)c(OC)c1', '876862-298-R-J1-PDC complex spheroids, viability % test/control', 0.0),
  ('C#Cc1c(F)ccc2cc(O)cc(-c3ncc4c(N5CC6CCC(C5)N6)nc(OCC56CCCN5CC(F)C6)nc4c3F)c12 (centres undefined) + CN1CCN(c2cc(C(=O)Nc3cc4cc(-c5cnn(C)c5)ccc4cn3)ccn2)CC1', '876862-298-R-J1-PDC complex spheroids, viability % test/control', 0.0),
  ('O=c1[nH]cc(F)c(=O)[nH]1 + CN1CCN(c2cc(C(=O)Nc3cc4cc(-c5cnn(C)c5)ccc4cn3)ccn2)CC1', '876862-298-R-J1-PDC complex spheroids, viability % test/control', 0.0);
